# test-method-notes: enzyme activity assay at 23° C. with purified enzyme
# Format: biochemical
# experimental-setup: wild-type set at 100%
measured-parameter: maximum activity as a percentage of the wild-type enzyme's activity, Dichlorprop (%)

molecule="MON-HT2: engineered oxygenase protein, amino acid sequence SEQ ID NO:18 (protein) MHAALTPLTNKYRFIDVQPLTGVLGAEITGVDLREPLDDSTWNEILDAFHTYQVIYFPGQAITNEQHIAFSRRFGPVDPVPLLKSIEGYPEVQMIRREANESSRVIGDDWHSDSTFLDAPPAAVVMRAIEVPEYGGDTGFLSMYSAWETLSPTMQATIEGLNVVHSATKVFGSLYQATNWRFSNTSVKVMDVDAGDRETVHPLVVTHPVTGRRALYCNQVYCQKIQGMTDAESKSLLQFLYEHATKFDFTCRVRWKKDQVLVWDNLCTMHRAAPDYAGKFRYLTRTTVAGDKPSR" numeric_result=92
molecule="MON-HT9: engineered oxygenase protein, amino acid sequence SEQ ID NO:40 (protein) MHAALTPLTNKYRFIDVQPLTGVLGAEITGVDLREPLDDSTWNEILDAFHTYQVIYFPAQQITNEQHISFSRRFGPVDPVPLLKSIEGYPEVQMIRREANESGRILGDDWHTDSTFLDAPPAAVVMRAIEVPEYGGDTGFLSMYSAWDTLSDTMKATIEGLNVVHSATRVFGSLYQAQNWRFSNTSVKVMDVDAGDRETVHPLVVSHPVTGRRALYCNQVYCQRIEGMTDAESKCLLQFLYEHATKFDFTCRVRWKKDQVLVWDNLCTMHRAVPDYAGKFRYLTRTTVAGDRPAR" numeric_result=19
molecule="MON-HT3: engineered oxygenase protein, amino acid sequence SEQ ID NO:22 (protein) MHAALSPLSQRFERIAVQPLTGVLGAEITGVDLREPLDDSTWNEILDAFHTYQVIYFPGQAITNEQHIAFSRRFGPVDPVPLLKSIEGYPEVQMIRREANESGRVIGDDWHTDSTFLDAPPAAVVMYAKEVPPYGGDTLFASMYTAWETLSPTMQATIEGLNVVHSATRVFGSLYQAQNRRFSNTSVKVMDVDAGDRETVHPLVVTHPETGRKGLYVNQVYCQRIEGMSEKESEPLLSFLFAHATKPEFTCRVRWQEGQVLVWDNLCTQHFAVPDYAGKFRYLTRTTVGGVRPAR" numeric_result=100
molecule="MON-HT6: engineered oxygenase protein, amino acid sequence SEQ ID NO:31 (protein) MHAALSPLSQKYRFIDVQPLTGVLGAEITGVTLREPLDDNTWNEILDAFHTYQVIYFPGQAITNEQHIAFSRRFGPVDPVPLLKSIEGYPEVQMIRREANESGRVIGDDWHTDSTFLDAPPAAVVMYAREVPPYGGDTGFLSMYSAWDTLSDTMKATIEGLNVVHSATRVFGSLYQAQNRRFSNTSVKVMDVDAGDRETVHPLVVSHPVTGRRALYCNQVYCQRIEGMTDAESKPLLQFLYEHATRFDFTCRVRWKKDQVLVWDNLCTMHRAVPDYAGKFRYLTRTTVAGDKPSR" numeric_result=37
